Consider the following binders and their measured Emax readings.
# Test System: T1, CEACAM5 (CD66e) on tumour cells (human, UniProt P06731 35-685, glycosylated (natural, as on tumour cells))
# T1 construct: whole, on cells; One molecule for CEACAM5 on all three cell lines; the cell line is named under assay; also called natural CEACAM5 antigen; Lovo cells
# T1 sequence (looked up): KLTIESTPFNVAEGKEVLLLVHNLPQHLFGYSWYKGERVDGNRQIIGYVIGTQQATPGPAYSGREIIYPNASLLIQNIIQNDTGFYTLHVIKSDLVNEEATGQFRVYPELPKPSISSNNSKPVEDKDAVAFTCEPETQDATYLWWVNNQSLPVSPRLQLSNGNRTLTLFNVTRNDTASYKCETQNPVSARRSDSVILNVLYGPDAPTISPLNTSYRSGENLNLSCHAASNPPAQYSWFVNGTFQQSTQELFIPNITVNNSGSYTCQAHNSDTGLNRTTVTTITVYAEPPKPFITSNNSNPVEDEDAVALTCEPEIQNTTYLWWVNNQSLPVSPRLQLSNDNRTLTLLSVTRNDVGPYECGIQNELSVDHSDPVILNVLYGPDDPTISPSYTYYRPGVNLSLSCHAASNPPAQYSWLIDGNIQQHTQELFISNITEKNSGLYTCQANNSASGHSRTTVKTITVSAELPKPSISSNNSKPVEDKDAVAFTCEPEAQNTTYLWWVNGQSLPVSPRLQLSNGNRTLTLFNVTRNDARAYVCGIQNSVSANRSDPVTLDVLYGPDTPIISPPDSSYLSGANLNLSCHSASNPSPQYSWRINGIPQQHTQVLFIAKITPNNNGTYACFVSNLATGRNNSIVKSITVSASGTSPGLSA
# Protocol: flow cytometry on KATO3 cells, anti-human IgG Fc-APC
# include the unit after the value

Some binders with recorded Emax:
[[record]]
binder = "Humanized antibody hAb-017 (antibody, V domains shown, also called hM19-15) VH: EVQLVESGGGLVQPGGSLRLSCAASGFTFTDYYMDWVRQAPGKALEWVGFTRNKVNGDTTEYAASVKGRFTISRDDSKNSLYLQMNSLKTEDTAVYYCARDKGIAYYFDYWGQGTLVTVSS VL: EIVLTQSPATLSASPGERATLSCRASSSVSYIHWYQQKPGQSPRPLIYGASNLASGVPARFSGSGSGTDFTLTISSLEPEDAAVYYCQQWSSNLSTFGGGTKVEIK"
value_kind = "Emax"
measurement = "57.7%"

[[record]]
binder = "Humanized antibody hAb-010 (antibody, V domains shown, also called hM19-8) VH: EVQLVESGGGLVQPGGSLRLSCAASGFTFTDYYMDWVRQAPGKALEWVGFIRNKVNGDTTEYAASVKGRFTISRDDSKNSLYLQMNSLKTEDTAVYYCARDKGIAYYFDYWGQGTLVTVSS VL: EIVLTQSPATLSASPGERATLSCRASSSVSYIHWYQQKPGQSPRPLIYGTSNRATGVPARFSGSGSGTDFTLTISSLEPEDAAVYYCQQWSSNLSTFGGGTKVEIK"
value_kind = "Emax"
measurement = "60.6%"


Now look at this entry.
Determine its reported Emax: Humanized antibody hAb-003 (antibody, V domains shown, also called hM19-1) VH: EVQLVESGGGLVQPGGSLRLSCAASGFTFTDYFMNWVRQAPGKALEWVGQMRNKVNGDTTEYAESVEGRFTISRDDSKNSLYLQMNSLKTEDTAVYYCARDKGIAYYFDYWGQGTLVTVSS VL: DIQMTQSPSSLSASVGDRVTITCRASSSVSYIHWYQQKPGKSPKPLIYGTSNLASGVPSRFSGSGSGTDFTLTISSLQPEDAATYYCQQWSSNLSTFGQGTKLEIK
85.1%
